# tested.target: Gamma-secretase
# protocol.summary: Modulation of gamma-secretase (unknown origin) assessed as inhibition of amyloid beta 42 production
# Assay type: protein-complex assay, Homo sapiens
measure.name: IC50 (nM)
Please reply with the bare figure in nM and do not write the unit itself.

Example cases with answers are listed next.
- CC(=O)O[C@@H]([C@@H]1C[C@@H](C)[C@H]2[C@H](O1)C(=O)[C@@]1(C)[C@@H]3CC[C@H]4C(C)(C)[C@@H](O[C@@H]5OC[C@@H](O)[C@H](O)[C@H]5O)CC[C@@]45C[C@@]35CC[C@]21C)C(C)(C)O: 600
- CC(=O)O[C@@H]([C@@H]1C[C@@H](C)[C@H]2[C@H](O1)[C@H](O)[C@@]1(C)[C@@H]3CC[C@H]4C(C)(C)[C@@H](OC(N)=O)CC[C@@]45C[C@@]35CC[C@]21C)C(C)(C)O: 200
- CC(=O)O[C@@H]([C@@H]1C[C@@H](C)[C@H]2[C@H](O1)[C@H](O)[C@@]1(C)[C@@H]3CC[C@H]4C(C)(C)[C@@H](OC(=O)NC5CCC5)CC[C@@]45C[C@@]35CC[C@]21C)C(C)(C)O: 470
- CC(=O)O[C@@H]([C@@H]1C[C@@H](C)[C@H]2[C@H](O1)[C@H](O)[C@@]1(C)[C@@H]3CC[C@H]4C(C)(C)[C@@H](OC(=O)c5cccnc5)CC[C@@]45C[C@@]35CC[C@]21C)C(C)(C)O: 260

Could you now look at the following molecule, please?
Prompt: Give me measured IC50, please, for this molecule: `CC(=O)O[C@@H]([C@@H]1C[C@@H](C)[C@H]2[C@H](O1)[C@H](O)[C@@]1(C)[C@@H]3CC[C@H]4C(C)(C)[C@@H](OC(=O)NCCN5CCOCC5)CC[C@@]45C[C@@]35CC[C@]21C)C(C)(C)O`
Completion: 230
